assay remarks: qHTS for Antimalaria activity screened against the NCATS CANVASS Library (AID 1347380); further: nearly all actives have a fitted effect of over 40% in size
condition info: P. falciparum Dd2 growth, SYBR Green fluorescence, 72 h; series mostly up to 28.7 µM
Text: Natural products and their derivatives continue to be wellsprings of nascent therapeutic potential. […] To address this issue, the Canvass library of natural products was assembled (https://tripod.nih.gov/canvass), in collaboration with academic and industry researchers, for quantitative high-throughput screening (qHTS) across a diverse set of cell-based and biochemical assays. […]
Results filed as inconclusive are left out. The source made the active and inactive calls. The call rests on the fitted dose curve; in most records, active means well fitted cell-killing curve with a large enough effect; inconclusive means small, poorly fitted or top-dose-only effect, or effect the other way; inactive means no such curve, though single readings can be large or run the other way.
Labels: active, inactive

| compound | answer label |
| --- | --- |
| O=C(O)[C@@]12COC3(O)C1CCN1CC[C@H]3[C@@H]1c1c2[nH]c2ccccc12 | inactive |
| C=CC(C)(C)C(=O)[C@@H](C)[C@@H]1CC[C@](C)(C=C)O1 | inactive |
| CNc1ccc(Cl)cc1C(=O)OC[C@]1(C)[C@H]2CC[C@]3(C)[C@@H](C[C@@H](OC)[C@H](C)[C@H]3C3=C(O)C(=O)OC3O)[C@]2(C)CC[C@H]1O (some centres not stated) | inactive |
| C=C1[C@H]2CC[C@@]3(C=CC(=O)[C@@](C)(CCC(=O)Nc4c(O)ccc(C(=O)O)c4O)C3C2)[C@H]1O (some centres not stated) | inactive |
| CO[C@H]1/C=C/CC[C@@H](S[C@@H]2O[C@H](CO)[C@@H](O)[C@H](O)[C@H]2O)CC(=O)O[C@@H](/C(C)=C/[C@H](C)C(=O)CCCC2CC(=O)NC(=O)C2)[C@@H](C)[C@@H]1O | inactive |
| O=c1cc(-c2ccc(O)c(O[C@@H]3O[C@H](CO)[C@@H](O)[C@H](O)[C@H]3O)c2)oc2cc(O[C@@H]3O[C@H](CO)[C@@H](O)[C@H](O)[C@H]3O)cc(O)c12 | active |
| C=CC(=C)CC[C@]1(C)[C@H]2C[C@H](OC(=O)C(C)CC)C=C3[C@H](OC(C)=O)O[C@H](OC(C)=O)[C@@]32[C@H](OC)C[C@@H]1C (some centres not stated) | active |

* * *

assay remarks: qHTS for Inhibitors of Plasmodium falciparum (HB3) proliferation (AID 504318); further: nearly all actives have a fitted effect of over 60% in size
condition info: P. falciparum HB3 in erythrocytes, SYBR Green DNA, 72 h; series mostly up to 7.21 µM
Text: Plasmodium falciparum is a virulent malarial parasite that kills 1-2 million people worldwide each year. Malaria not only inflicts tremendous suffering and morbidity on the human population, but has dramatically influenced the course of civilization with profound sociological and economic implications (Shah, S. 2010). […] Because mature erythrocytes lack DNA, only Plasmodium-derived DNA is detected. […]
Inconclusive results are not listed. Activity calls are given as the source filed them. Calls follow the shape of the dose curve; as a rule, active = well fitted inhibition curve with a large enough effect; inconclusive = small, poorly fitted or top-dose-only effect; inactive = flat fitted curve, though single readings scatter.
Labels: Y = active, N = inactive

| compound | answer label |
| --- | --- |
| CC1=C[C@@H](C)OC2(C1)C(=O)N(CC1CC1)c1cccc(Br)c12 (stereo partly drawn) | N |
| CC1=C[C@]2(O[C@H](COc3ccccc3)C1)C(=O)N(C)c1ccccc12 | N |
| CC1(OC(=O)C2CCCC2)C(=O)C=C2C=C3CCCCN3C=C2C1=O (stereo not drawn) | N |
| COc1ccc2c(c1)[C@@]1(OCCC=C[C@@H]1C)C(=O)N2Cc1ccc(Br)cc1 | N |
| C=C(C#CCCO)CCN1C=C(C(=O)OCC)C(c2ccccc2)NC1=O (stereo not drawn) | N |
| C=CCC12OC3(OC)CC1[C@H](C)[C@@H](c1ccccc1)C2[C@@]3(C)O (stereo partly drawn) | N |
| C=C(C)C(O)C=Cc1ccc(C(F)(F)F)cc1 (stereo not drawn) | N |
| CC(C)=CCCC(C)=CCN1C(=O)[C@]2(O[C@H](COc3ccccc3)CC3=CCCC32)c2c(Br)cccc21 (stereo partly drawn) | Y |
| Cc1cc(F)ccc1O[C@H]1C=C[C@@H](c2ccc3c(c2)OCO3)O[C@H]1CO | N |
| CC(C)=CCCC(C)=CCON=C1C[C@@H](O)[C@@H](O)[C@@H]2[C@H]3C(=O)N(c4cccc(Oc5ccccc5)c4)C(=O)[C@@H]3CC[C@H]12 | N |
| C[C@@H]1CC[C@H]2C(=O)N(Cc3ccc(Cl)cc3)C[C@@H](O)CN2[C@@H]1c1ccc(Br)cc1 | N |
| CC1(C)CC(=O)C2=C(C1)O[C@@]1(c3ccsc3)Cc3cc(C#N)ccc3[C@H]2O1 | N |
| COC(=O)CCCC1=CC2=CC(=O)C(C)(OC(=O)c3cccs3)C(=O)C2=CN1C1CCCCC1 (stereo not drawn) | N |
| CCOC(=O)CN1C(=O)[C@@]2(C[C@@H](C)C[C@@H](C)O2)c2ccccc21 | N |
| C[C@H]1CC[C@H]2C(=O)O[C@H](CO)CN2[C@H]1c1ccc(Br)cc1 | N |
| O=C1[C@@H]2[C@H]3[C@H](O)[C@H](O)CC(=NOC[C@@H](O)COCc4ccco4)[C@H]3CC[C@H]2C(=O)N1C[C@@H]1CCCO1 | N |
| CC12C=C(C=Cc3ccc(Br)cc3)C(C)(C1)[C@H](c1ccc(Br)cc1)CC2=O (stereo partly drawn) | Y |
| O=C1OC2(CCCCC2)CC2=C1[C@H]1O[C@](c3ccsc3)(Cc3ccccc31)O2 | N |
